Molecular target: Core antigen (Hepatitis B virus) (UniProt Q03732)
Sequence (Q03732 as listed by the source): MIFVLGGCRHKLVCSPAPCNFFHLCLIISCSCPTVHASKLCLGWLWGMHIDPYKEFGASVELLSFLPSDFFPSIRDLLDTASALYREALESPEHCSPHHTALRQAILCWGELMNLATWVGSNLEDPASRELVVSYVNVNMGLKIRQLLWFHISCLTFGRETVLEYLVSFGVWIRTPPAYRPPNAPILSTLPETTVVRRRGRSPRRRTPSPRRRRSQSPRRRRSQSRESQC
Assay: Inhibition of Hepatitis B virus capsid formation at 100 uM treated during cell-free wild type HBV Cp synthesis using wheat germ lysates and HBV Cp RNA by Native capsid assay based western blot analysis
Type: subcellular
The source made the active and inactive calls. No rule for the calls is given here. Residues, ends and D or L forms follow the SMILES beside them.
Quantity: inhibition

[[record]]
compound = "CC[C@H](C)[C@H](NC(C)=O)C(=O)N[C@@H](CCCNC(=N)N)C(=O)N[C@H](C(=O)N1CCC[C@H]1C(=O)N1CCC[C@H]1C(=O)N[C@@H](C)C(=O)N[C@@H](Cc1ccc(O)cc1)C(=O)N[C@@H](CCCNC(=N)N)C(=O)N1CCC[C@H]1C(=O)N1CCC[C@H]1C(=O)N[C@@H](CC(N)=O)C(=O)N[C@@H](C)C(=O)N1CCC[C@H]1C(=O)N[C@H](C(=O)N[C@@H](CC(C)C)C(N)=O)[C@@H](C)CC)[C@@H](C)O (Ac-IRTPPAYRPPNAPIL-NH2)"
quantity = "inhibition"
result = "inactive"

[[record]]
compound = "CC[C@H](C)[C@H](NC(=O)[C@H](CC(=O)O)NC(=O)[C@H](CCSC)NC(C)=O)C(=O)N[C@@H](CC(=O)O)C(=O)N1CCC[C@H]1C(=O)N[C@@H](Cc1ccc(O)cc1)C(=O)N[C@@H](CCCCN)C(=O)N[C@@H](CCC(=O)O)C(=O)N[C@@H](Cc1ccccc1)C(=O)NCC(=O)N[C@@H](C)C(=O)N[C@@H](CO)C(=O)N[C@H](C(=O)N[C@@H](CCC(=O)O)C(=O)N[C@@H](CC(C)C)C(N)=O)C(C)C"
quantity = "inhibition"
result = "inactive"

[[record]]
compound = "CC[C@H](C)[C@H](NC(=O)[C@H](Cc1c[nH]cn1)NC(=O)[C@H](Cc1ccccc1)NC(=O)[C@H](Cc1c[nH]c2ccccc12)NC(=O)[C@@H](N)CC(C)C)C(=O)N[C@@H](CO)C(=O)N[C@@H](CS)C(=O)N[C@@H](CC(C)C)C(=O)N[C@H](C(=O)N[C@@H](Cc1ccccc1)C(=O)NCC(=O)N[C@@H](CCCNC(=N)N)C(=O)N[C@@H](CCC(=O)O)C(=O)N[C@H](C(=O)N[C@H](C(N)=O)C(C)C)[C@@H](C)O)[C@@H](C)O (H-LWFHISCLTFGRETV-NH2)"
quantity = "inhibition"
result = "inactive"


###

Target: Core antigen (Hepatitis B virus)
Experiment: Inhibition of Hepatitis B virus capsid formation at 100 uM treated during cell-free wild type HBV Cp synthesis using wheat germ lysates and HBV Cp RNA by Native capsid assay based western blot analysis
Assay type: subcellular
The source made the active and inactive calls. No rule for the calls is given here. Residues, ends and D or L forms follow the SMILES beside them.
Quantity: inhibition

[[record]]
molecule = "CC[C@H](C)[C@H](NC(=O)[C@H](C)NC(=O)[C@H](CCC(N)=O)NC(=O)[C@@H]1CCCN1C(=O)[C@H](CC(C)C)NC(=O)[C@H](C)NC(=O)[C@@H](NC(=O)[C@H](Cc1c[nH]cn1)NC(=O)[C@@H](N)Cc1c[nH]cn1)[C@@H](C)O)C(=O)N[C@@H](CC(C)C)C(=O)N[C@@H](CS)C(=O)N[C@@H](Cc1c[nH]c2ccccc12)C(=O)NCC(=O)N[C@@H](CCC(=O)O)C(=O)N[C@@H](CC(C)C)C(N)=O (H-HHTALPQAILCWGEL-NH2)"
quantity = "inhibition"
result = "inactive"

[[record]]
molecule = "CC[C@H](C)[C@H](NC(=O)[C@H](Cc1c[nH]cn1)NC(=O)[C@H](Cc1ccccc1)NC(=O)[C@H](Cc1c[nH]c2ccccc12)NC(=O)[C@H](CC(C)C)NC(C)=O)C(=O)N[C@@H](CO)C(=O)N[C@@H](CS)C(=O)N[C@@H](CC(C)C)C(=O)N[C@H](C(=O)N[C@@H](Cc1ccccc1)C(=O)NCC(=O)N[C@@H](CCCNC(=N)N)C(=O)N[C@@H](CCC(=O)O)C(=O)N[C@H](C(=O)N[C@H](C(N)=O)C(C)C)[C@@H](C)O)[C@@H](C)O (Ac-LWFHISCLTFGRETV-NH2)"
quantity = "inhibition"
result = "inactive"

[[record]]
molecule = "CC[C@H](C)[C@H](NC(=O)[C@@H](N)CO)C(=O)N[C@@H](CCCNC(=N)N)C(=O)N[C@@H](CC(=O)O)C(=O)N[C@@H](CC(C)C)C(=O)N[C@@H](CC(C)C)C(=O)N[C@@H](CC(=O)O)C(=O)N[C@H](C(=O)N[C@@H](C)C(=O)N[C@@H](CO)C(=O)N[C@@H](C)C(=O)N[C@@H](CC(C)C)C(=O)N[C@@H](Cc1ccc(O)cc1)C(=O)N[C@@H](CCCNC(=N)N)C(=O)N[C@@H](CCC(=O)O)C(N)=O)[C@@H](C)O"
quantity = "inhibition"
result = "inactive"


###

Target: UniProtKB Q03732
Assay: Inhibition of Hepatitis B virus capsid formation at 100 uM treated during cell-free wild type HBV Cp synthesis using wheat germ lysates and HBV Cp RNA by Native capsid assay based western blot analysis
Format: subcellular
The source made the active and inactive calls. No rule for the calls is given here. Residues, ends and D or L forms follow the SMILES beside them.
Quantity: inhibition

[[record]]
molecule = "CC(=O)N[C@@H](Cc1c[nH]c2ccccc12)C(=O)N[C@H](C(=O)NCC(=O)N[C@@H](CO)C(=O)N[C@@H](CC(N)=O)C(=O)N[C@@H](CC(C)C)C(=O)N[C@@H](CCC(=O)O)C(=O)N[C@@H](CC(=O)O)C(=O)N1CCC[C@H]1C(=O)N[C@@H](C)C(=O)N[C@@H](CO)C(=O)N[C@@H](CCCNC(=N)N)C(=O)N[C@@H](CCC(=O)O)C(=O)N[C@@H](CC(C)C)C(=O)N[C@H](C(N)=O)C(C)C)C(C)C"
system = "UniProtKB Q03732"
result = "inactive"

[[record]]
molecule = "CC[C@H](C)[C@H](NC(=O)[C@H](CO)NC(=O)[C@@H]1CCCN1C(=O)[C@H](Cc1ccccc1)NC(=O)[C@H](Cc1ccccc1)NC(=O)[C@H](CC(=O)O)NC(=O)[C@@H](N)CO)C(=O)N[C@@H](CCCNC(=N)N)C(=O)N[C@@H](CC(=O)O)C(=O)N[C@@H](CC(C)C)C(=O)N[C@@H](CC(C)C)C(=O)N[C@@H](CC(=O)O)C(=O)N[C@H](C(=O)N[C@@H](C)C(=O)N[C@@H](CO)C(N)=O)[C@@H](C)O"
system = "UniProtKB Q03732"
result = "inactive"

[[record]]
molecule = "CC(=O)N[C@@H](CO)C(=O)N[C@@H](CS)C(=O)N[C@@H](CC(C)C)C(=O)N[C@H](C(=O)N[C@@H](Cc1ccccc1)C(=O)NCC(=O)N[C@@H](CCCNC(=N)N)C(=O)N[C@@H](CCC(=O)O)C(=O)N[C@H](C(=O)N[C@H](C(=O)N[C@@H](CC(C)C)C(=O)N[C@@H](CCC(=O)O)C(=O)N[C@@H](Cc1ccc(O)cc1)C(=O)N[C@@H](CC(C)C)C(=O)N[C@H](C(N)=O)C(C)C)C(C)C)[C@@H](C)O)[C@@H](C)O (Ac-SCLTFGRETVLEYLV-NH2)"
system = "UniProtKB Q03732"
result = "inactive"

